B1: Ankyrin-3, residues 4094 to 4171; numbered along this chain, Q12955 (parent)
chain: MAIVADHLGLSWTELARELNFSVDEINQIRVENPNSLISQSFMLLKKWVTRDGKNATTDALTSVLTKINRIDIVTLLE

- Variants of: B1
- run description: abundance fitness (aPCA) (normalised: wild type 0, dead -1); higher = more abundant; growth selection in yeast, the domain comes from the species named
- study conditions: Homo sapiens
reported metric: abundance fitness
Give bare numbers.

Past entries and their recorded results:
sequence change	recorded result
E25Q	-0.251
I3Q	-0.33
L61I	-0.355

For the 3 variants below, give their abundance fitness values.
1. Q28T
2. L10T
3. A2L

-0.223
-0.046
-0.126
